Attribute: growth
Test system: SK-MEL-5 melanoma
Assay Comment: NCI-60 one-dose screen, 48 h (100 = growth as untreated, 0 = no growth, -100 = all killed)
Condition Label: 10 µM unless noted
The panel holds about 83,000 compounds, 20% with a hit somewhere; the sample as a whole holds those more often.

# Compound, growth (%)
rows = [
    ("C=C[C@@H]1C[C@@H]2Cc3c(C)cc(C)cc3N1O2", 103),
    ("CC1=C(C#N)C(=O)NC(C)C1 (stereo not given)", 105),
    ("COc1ccc(Nc2ncccc2C(=O)NCc2cn(Cc3cccc(Oc4ccccc4)c3)nn2)c(OC)c1", 23),
    ("COc1ccc(/C=C2\\N=C(c3ccccc3)N(C(=O)c3ccccc3O)NC2=O)cc1", 101),
    ("COc1cc(C(=O)/C=C/c2c(C)n([O-])c3ccc(C(F)(F)F)cc3[n+]2=O)cc(OC)c1OC", 102),
    ("Cn1ccc(Nc2nccc(Oc3ccc(C(=O)Nc4cccc(F)c4)c(Cl)c3)n2)c1", 39.5),
    ("Cc1ccc(S(=O)(=O)NCCNc2cc(-c3cn(C(C)(C)C)nc3-c3cccc(O)c3)ccn2)cc1", 30.9),
    ("COc1cc2c(=O)n(C3CCCCCC3)c3c4cc[nH]c4ncc3c2cc1OC", 87.2),
    ("COc1ccccc1CNCCCN1C(=O)c2ccc3c4c(ccc(c24)C1=O)C(=O)N(CCCNCCCCNCCCN)C3=O", -99.3),
    ("COc1cc(/C=C/C(=O)N2CCN(C(=O)/C=C/c3cc(OC)c(OC)c(OC)c3)CC2)cc(OC)c1OC", 104),
]

###

Test system: HCT-116 colon
Assay Comment: NCI-60 one-dose screen, 48 h
Condition Label: 10 µM unless noted
Compounds without any hit were thinned out: in the full panel of roughly 83,000, 20% have a hit. Calls of active or inactive are those of the source. Rule for the calls: active = growth percent below 10; inactive = the rest.
Outcome codes: active, inactive

# Molecule, Discrete Label
measured = [
    ("CCN(CC)c1ccc(CNc2ccnc3ccccc23)cc1", "inactive"),
    ("COc1cc(-c2nn(-c3cccc(NC(=O)Nc4cc(C(F)(F)F)cc(C(F)(F)F)c4)c3)cc2-c2ccncc2)ccc1Cl", "active"),
    ("CCCCCc1cc[n+](CC(=O)c2ccc([N+](=O)[O-])cc2)cc1", "inactive"),
    ("C[n+]1c(/C=C/c2c(O)ccc3ccccc23)ccc2ccccc21", "active"),
    ("COc1c2occc2c(OC)c2c(=O)c(-c3cc(-c4ccc(F)cc4)c(C#N)c(N)n3)c(C)oc12", "active"),
    ("C=C1C(=O)O[C@@H]2[C@@H]3O[C@@](C)(CC/C=C(\\C)CCC[C@@H]2C)[C@H](O)C[C@@H]13", "active"),
    ("CC(=O)Nc1ccc(S(=O)(=O)n2ccc(-c3ccc4c(c3)CCC(C)(C)O4)n2)cc1", "inactive"),
    ("Cc1ccc(-c2nc(C#N)c(S(=O)(=O)n3nc(-c4ccccc4)cc3N)o2)cc1", "inactive"),
    ("Cc1ccc(S(=O)(=O)NCCNc2nccc(-c3c(-c4cccc(N)c4)nc4sccn34)n2)cc1", "inactive"),
    ("C=C[C@@H]1C[C@H](O)Cc2cc(F)ccc2N1", "inactive"),
    ("COc1cc(-c2nc(N=Nc3c(O)[nH]c4ccc(Br)cc34)[nH]c(=O)c2C#N)cc(OC)c1OC", "inactive"),
    ("CCCCN(CCCC)C(=O)CC", "inactive"),
    ("O=c1c2sc3ncccc3c2nnn1-c1ccccc1", "inactive"),
    ("COc1ccc(-c2c(N)n[nH]c2-c2cc(OC)c3c(c2)OCCO3)cc1", "inactive"),
    ("C=C[C@@H]1C[C@@H]2Cc3ccccc3N1O2", "inactive"),
    ("Fc1ccccc1-c1nc(-c2nc3cc(Cl)c(Cl)cc3[nH]2)c2ccccn12", "inactive"),
    ("COc1ccc2[nH]c(=O)c3c4ccccc4cn3c2c1", "active"),
    ("O=S(=O)(CC(O)(c1ccccc1)c1ccccc1)CC(O)(c1ccccc1)c1ccccc1", "inactive"),
    ("N/C(=N\\S(=O)(=O)c1ccccc1)Nc1nc2ccccc2s1", "inactive"),
    ("CO[C@H]1NC(=O)N(S(=O)(=O)c2ccc(Cl)cc2)[C@@H]1OC", "inactive"),
    ("COc1ccc(-c2cc3c(OC)c(OC)c(OC)cc3oc2=O)cc1", "inactive"),
    ("CCCCNC(=O)Oc1ccc(/C(=C(\\C)c2ccccc2)c2ccc(OCCN(CC)CC)cc2)cc1", "inactive"),
    ("O=C1CS/C(=N\\Nc2cc(=O)[nH]c3ccccc23)N1c1ccccc1", "inactive"),
    ("Cc1c(C(=O)/C=C/c2csc3ccccc23)[n+](=O)c2ccccc2n1[O-]", "inactive"),
    ("COc1cc(-c2ncn(/C=C\\C(=O)OC(C)C)n2)cc(C(F)(F)F)c1", "active"),
    ("COC(=O)c1cc2cc(-c3ccc(OC)cc3)cnc2[nH]1", "inactive"),
    ("CC(=O)OC[C@]12CC[C@H]3[C@@H](C[C@H]4O[C@]45CC=CC(=O)[C@]35C)[C@]1(O)CC[C@@]2(O)[C@@](C)(O)C1CC(C)=C(C)C(=O)O1 (some centres not stated)", "active"),
    ("Cc1cc(C)n(-c2nnc3n2N=C(c2ccc(-c4ccccc4)cc2)CS3)n1", "inactive"),
    ("COc1cccc(-c2cc3c(O)cc(C#N)cc3[nH]2)c1", "inactive"),
    ("OB(O)c1cccc(-c2nc3ccc4[nH]ncc4c3c3c2CCCC3)c1F", "inactive"),
    ("COc1cc(NCCCCCN)c2ncccc2c1", "inactive"),
    ("CCCCCCCCCCCCNC(=O)[C@H]1CSC(c2cc3ccccc3s2)N1 (some centres not stated)", "active"),
    ("O=[N+]([O-])c1cnc(Sc2ccncn2)s1", "active"),
    ("CN1CCN(CCCOc2ccc3nc(Nc4ccc(Cl)c(C(F)(F)F)c4)ccc3c2)CC1", "inactive"),
    ("Nc1cccc(Cl)c1N", "inactive"),
    ("CN(C[C@H]1Cc2c(cccc2N2CCN(Cc3ccccn3)CC2)CN1)[C@H]1CCCc2cccnc21", "inactive"),
    ("CCCCCCCCCCCCNC(=O)[C@H]1CSC(c2cc(Br)cs2)N1 (some centres not stated)", "active"),
    ("Nc1cccc(-c2nc3sccn3c2-c2ccnc(NCCCNS(=O)(=O)c3cccc4ccccc34)n2)c1", "inactive"),
    ("COc1cc(NC(=O)SC2=NCCS2)cc(OC)c1", "inactive"),
    ("Cc1ccc(S(=O)(=O)n2cc(C(=O)C(=O)N3CCOCC3)c3ccccc32)cc1", "inactive"),
    ("O=C(C1=Cc2cc3ccccc3n2Cc2cnnn21)c1ccccc1", "inactive"),
    ("CC(C)CSc1nc(NN)c(C#N)c(-c2ccccc2)n1", "inactive"),
]

###

Test system: MDA-MB-435 melanoma
Assay Comment: NCI-60 one-dose screen, 48 h (100 = growth as untreated, 0 = no growth, -100 = all killed)
Condition Label: 10 µM unless noted
Compounds without any hit were thinned out: in the full panel of roughly 83,000, 20% have a hit.
Readout Label: growth (%)

# Molecule, Reported Result
rows = [
    ("COc1ccc(/C=C2\\CN(Cc3cn(CCNc4ccnc5cc(Cl)ccc45)nn3)C/C(=C\\c3ccc(OC)c(OC)c3)C2=O)cc1OC", -5.87),
    ("NC(=O)CCCN1C/C(=C\\c2ccccc2)C(=O)c2ccccc21", 101),
    ("CC(C)(C)n1cc(-c2ccnc(NCCCNS(=O)(=O)c3ccc(Br)cc3)c2)c(-c2cccc(O)c2)n1", 39),
    ("Cc1ccc(CSC(=N)N)cc1C", 112),
    ("COc1cc(-c2nn(-c3cccc(NC(=O)c4ccc(Cl)c(C(F)(F)F)c4)c3)cc2-c2ccncc2)ccc1Cl", -26.8),
    ("CC(=O)Oc1csc(N(C(C)=O)c2cc(C(=O)O)cc(C(=O)O)c2)n1", 102),
    ("Cc1cc(N/N=C/c2nc(-c3ccccc3)oc2C)c2cc(Br)ccc2n1", 43.4),
    ("O=C(N/N=C/C=C\\c1ccccc1)C(=O)N/N=C/C=C/c1ccccc1", 121),
    ("CC1CCC(C)N(C)C1 (stereo not given)", 111),
    ("Cc1ccc2nc(-c3cc4c([nH]c5ccccc54)c(-c4ccc(F)c(F)c4)n3)[nH]c2c1", 91.3),
    ("COc1ccc(-n2c(=O)sc3c(Cl)nc(C)nc32)c(OC)c1", 69.5),
    ("O=C(Nc1ccncc1)C(=O)c1cn(S(=O)(=O)c2ccc(Oc3ccccc3)cc2)c2ccccc12", 94.1),
    ("O=C(Nc1ccc2c(c1)OCO2)C(=O)c1c[nH]c2cc(F)ccc12", 34.7),
    ("O=C(NCCCNc1nccc(-n2ccc3cccnc32)n1)c1c(F)cccc1F", 105),
    ("ClC(Cl)c1nc(-c2ccccc2)nc2cc(-c3ccccc3)nn12", 94.2),
    ("O=C(c1ccccc1)c1c(/C=C/c2ccccc2)c2ccccc2[nH]c1=O", 98.2),
    ("CN1C(=O)N(C)C2C1NN=c1s/c(=C\\c3cccnc3)c(=O)n12 (stereo not given)", 8.5),
    ("CCN1CCN(CC(=O)N2c3cccc4cccc(c34)N(C(=O)CN3CCN(CC)CC3)C2c2cn(-c3ccccc3)nc2-c2cccc([N+](=O)[O-])c2)CC1", -75.7),
    ("Nc1cccc(-c2nc3sccn3c2-c2ccnc(NCCNS(=O)(=O)c3ccc(C(F)(F)F)cc3)n2)c1", 27),
    ("Cn1ccc(=O)c(S(N)(=O)=O)c1", 103),
]
